Test system: DPX2 cells
measurement setup: 6.25 μM, 24 h
readout name: DPX2 Viability @ 6.25 μM (%)
State just the number; it will be interpreted in %.

CO[C@H]1/C=C/O[C@@]2(C)Oc3c(C)c(O)c4c(=O)c(c5oc6cccc(OCc7ccc(CN8CCN(C)CC8)cc7)c6nc-5c4c3C2=O)NC(=O)/C(C)=C\C=C\[C@H](C)[C@H](O)[C@@H](C)[C@@H](O)[C@@H](C)[C@H](OC(C)=O)[C@@H]1C [Compound 16e]; 63
CO[C@H]1/C=C/O[C@@]2(C)Oc3c(C)c(O)c4c(=O)c(c5oc6cc(N7CCN(CCCO[C@@H]8COc9nc([N+](=O)[O-])cn9C8)CC7)cc(C)c6nc-5c4c3C2=O)NC(=O)/C(C)=C\C=C\[C@H](C)[C@H](O)[C@@H](C)[C@@H](O)[C@@H](C)[C@H](OC(C)=O)[C@@H]1C [Compound 29d]; 114
CO[C@H]1/C=C/O[C@@]2(C)Oc3c(C)c(O)c4c(=O)c(c5oc6cc(N7CCN(CCCCCCO[C@@H]8COc9nc([N+](=O)[O-])cn9C8)CC7)cc(C)c6nc-5c4c3C2=O)NC(=O)/C(C)=C\C=C\[C@H](C)[C@H](O)[C@@H](C)[C@@H](O)[C@@H](C)[C@H](OC(C)=O)[C@@H]1C [Compound 29e]; 112
CCC(=O)N1CCN(c2cc(C)c3nc4c5c6c7c(C)c(O)c5c(=O)c(c-4oc3c2)NC(=O)/C(C)=C\C=C\[C@H](C)[C@H](O)[C@@H](C)[C@@H](O)[C@@H](C)[C@H](OC(C)=O)[C@H](C)[C@@H](OC)/C=C/O[C@@](C)(O7)C6=O)CC1 [Compound 26e]; 101
CO[C@H]1/C=C/O[C@@]2(C)Oc3c(C)c(O)c4c(=O)c(c5oc6cc(C)cc(N7CCN(C(=O)c8cccc(-n9ccnc9)c8)CC7)c6nc-5c4c3C2=O)NC(=O)/C(C)=C\C=C\[C@H](C)[C@H](O)[C@@H](C)[C@@H](O)[C@@H](C)[C@H](OC(C)=O)[C@@H]1C [Compound 30f]; 98

Which DPX2 Viability @ 6.25 μM is listed for CO[C@H]1/C=C/O[C@@]2(C)Oc3c(C)c(O)c4c(=O)c(c5oc6cccc(OCc7cccc(CN8CCN(C(=O)CN9CCOCC9)CC8)c7)c6nc-5c4c3C2=O)NC(=O)/C(C)=C\C=C\[C@H](C)[C@H](O)[C@@H](C)[C@@H](O)[C@@H](C)[C@H](OC(C)=O)[C@@H]1C [Compound 11f] ?
103

Also CO[C@H]1/C=C/O[C@@]2(C)Oc3c(C)c(O)c4c(=O)c(c5oc6cc(N7CCN(CC(C)C)CC7)cc(OCc7ccc(CN8CCNCC8)cc7)c6nc-5c4c3C2=O)NC(=O)/C(C)=C\C=C\[C@H](C)[C@H](O)[C@@H](C)[C@@H](O)[C@@H](C)[C@H](OC(C)=O)[C@@H]1C [Compound 17b] , if possible.
109
